Listing of entries alongside the reported viability, T/C.
system: KRAS PDC tumor spheroids (HUVEC+MSC), viability; test: Anticancer human tumor 254851-301-R-J1-PDC patient-derived colon carcinoma cell line growth inhibition [KRAS2]; settings: second compound 0.1 µM; first compound 0.000316 µM; stronger effect = lower value;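 further: spheroids exposed to compounds for seven days before readout; 100% = DMSO vehicle control luminescence of the spheroids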
Number in %, nothing else.

COMPOUND	MEASURED QUANTITY	VALUE UNIT	RECORDED RESULT
Cn1ncnc1[C@H]1c2n[nH]c(=O)c3cc(F)cc(c23)N[C@@H]1c1ccc(F)cc1 + C=CC(=O)N1CCN(c2nc(=O)n(-c3c(C)ccnc3C(C)C)c3nc(-c4c(O)cccc4F)c(F)cc23)C(C)C1	viability, T/C	%	101
CC(C)n1nc(-c2ccc3oc(N)nc3c2)c2c(N)ncnc21 + COc1cc2nc(C)nc(NC(C)c3cc(N)cc(C(F)(F)F)c3)c2cc1OC1CCOC1	viability, T/C	%	99
Cn1ncnc1[C@H]1c2n[nH]c(=O)c3cc(F)cc(c23)N[C@@H]1c1ccc(F)cc1 + CNCc1ccccc1-c1csc(C(C)Nc2nc(C)nc3cc(OC)c(OC)cc23)c1	viability, T/C	%	94.9

// Input: CC(C)n1nc(-c2ccc3oc(N)nc3c2)c2c(N)ncnc21 + C=CC(=O)N1CCN(c2nc(=O)n(-c3c(C)ccnc3C(C)C)c3nc(-c4c(O)cccc4F)c(F)cc23)C(C)C1 . Output its viability, T/C only.
107

// Input: CN(C)C/C=C/C(=O)Nc1cc2c(Nc3ccc(F)c(Cl)c3)ncnc2cc1O[C@H]1CCOC1 + CC1OCC2(CCN(c3cnc(Sc4ccnc(N)c4Cl)c(N)n3)CC2)C1N . Output its viability, T/C only.
105

// Input: CN(C)C/C=C/C(=O)Nc1cc2c(Nc3ccc(F)c(Cl)c3)ncnc2cc1O[C@H]1CCOC1 + C=CC(=O)N1CCN(c2nc(OCC3CCCN3C)nc3c2CCN(c2cccc4cccc(C)c24)C3)CC1CC#N . Output its viability, T/C only.
105

Reference source for all entries: PubChem BioAssay AID1963868
